Assay: Induction of hemolysis in Sprague-Dawley rat erythrocytes at 200 uM incubated at 37 degC for 60 mins by spectrophotometry
Type: cell-based, Erythrocyte
Settings: read-out: Activity
Non-standard residues stand in square brackets, D forms with d. Residues, ends and D or L forms follow the SMILES beside them. Nspe = C[C@H](NCC(=O)O)c1ccccc1; Nlys = NCCCCNCC(=O)O
OBSERVABLE: hemolysis at 1 h, 200 µM (%)
Numbers only; they are read as %.

QUERY: Entry C[C@@H](c1ccccc1)N(CC(=O)N(CCCCN)CC(=O)N(CC(=O)N(CC(=O)N(CCCCN)CC(=O)N(CC(=O)N(CC(=O)N(CCCCN)CC(=O)N(CC(=O)N(CC(=O)N(CCCCN)CC(N)=O)[C@@H](C)c1ccccc1)[C@@H](C)c1ccccc1)[C@@H](C)c1ccccc1)[C@@H](C)c1ccccc1)[C@@H](C)c1ccccc1)[C@@H](C)c1ccccc1)C(=O)CN(C(=O)CNCCCCN)[C@@H](C)c1ccccc1 (H-[Nlys][Nspe][Nspe][Nlys][Nspe][Nspe][Nlys][Nspe][Nspe][Nlys][Nspe][Nspe][Nlys]-NH2) has what hemolysis at 1 h, 200 µM?
RESULT: 48.1

QUERY: Entry C[C@@H](c1ccc(F)cc1)N(CC(N)=O)C(=O)CN(C(=O)CN(CCCCN)C(=O)CN(C(=O)CN(C(=O)CN(CCCCN)C(=O)CN(C(=O)CN(C(=O)CN(CCCCN)C(=O)CN(C(=O)CN(C(=O)CNCCCCN)[C@@H](C)c1ccc(F)cc1)[C@@H](C)c1ccc(F)cc1)[C@@H](C)c1ccc(F)cc1)[C@@H](C)c1ccc(F)cc1)[C@@H](C)c1ccc(F)cc1)[C@@H](C)c1ccc(F)cc1)[C@@H](C)c1ccc(F)cc1 has what hemolysis at 1 h, 200 µM?
RESULT: 100

QUERY: Entry Cc1ccc([C@H](C)N(CC(N)=O)C(=O)CN(C(=O)CN(CCCCN)C(=O)CN(C(=O)CN(C(=O)CN(CCCCN)C(=O)CN(C(=O)CN(C(=O)CN(CCCCN)C(=O)CN(C(=O)CN(C(=O)CNCCCCN)[C@@H](C)c2ccc(C)cc2)[C@@H](C)c2ccc(C)cc2)[C@@H](C)c2ccc(C)cc2)[C@@H](C)c2ccc(C)cc2)[C@@H](C)c2ccc(C)cc2)[C@@H](C)c2ccc(C)cc2)[C@@H](C)c2ccc(C)cc2)cc1 has what hemolysis at 1 h, 200 µM?
RESULT: 100

QUERY: Entry C[C@@H](c1ccc(Cl)cc1)N(CC(N)=O)C(=O)CN(C(=O)CN(CCCCN)C(=O)CN(C(=O)CN(C(=O)CN(CCCCN)C(=O)CN(C(=O)CN(C(=O)CN(CCCCN)C(=O)CN(C(=O)CN(C(=O)CNCCCCN)[C@@H](C)c1ccc(Cl)cc1)[C@@H](C)c1ccc(Cl)cc1)[C@@H](C)c1ccc(Cl)cc1)[C@@H](C)c1ccc(Cl)cc1)[C@@H](C)c1ccc(Cl)cc1)[C@@H](C)c1ccc(Cl)cc1)[C@@H](C)c1ccc(Cl)cc1 has what hemolysis at 1 h, 200 µM?
RESULT: 100

QUERY: Entry C[C@@H](c1ccccc1)N(CC(=O)N(CCCCN)CC(=O)N(CC(=O)N(CC(=O)N(CCCCN)CC(=O)N(CC(=O)N(CC(=O)N(CCCCN)CC(N)=O)[C@@H](C)c1ccccc1)[C@@H](C)c1ccccc1)[C@@H](C)c1ccccc1)[C@@H](C)c1ccccc1)C(=O)CN(C(=O)CNCCCCN)[C@@H](C)c1ccccc1 (H-[Nlys][Nspe][Nspe][Nlys][Nspe][Nspe][Nlys][Nspe][Nspe][Nlys]-NH2) has what hemolysis at 1 h, 200 µM?
RESULT: 9.8

QUERY: Entry C[C@H](c1ccccc1)N(CC(N)=O)C(=O)CN(C(=O)CN(CCCCN)C(=O)CN(C(=O)CN(C(=O)CN(CCCCN)C(=O)CN(C(=O)CN(C(=O)CNCCCCN)[C@H](C)c1ccccc1)[C@@H](C)c1ccccc1)[C@H](C)c1ccccc1)[C@@H](C)c1ccccc1)[C@H](C)c1ccccc1 (stereo in doubt) has what hemolysis at 1 h, 200 µM?
RESULT: 38.7

QUERY: Entry C[C@@H](c1ccccc1)N(CC(N)=O)C(=O)CN(C(=O)CN(CCCCN)C(=O)CN(C(=O)CN(C(=O)CN(CCCCN)C(=O)CN(C(=O)CN(C(=O)CN(CCCCN)C(=O)CN(C(=O)CN(C(=O)CNCCCCN)[C@@H](C)c1ccccc1)[C@@H](C)c1ccccc1)[C@@H](C)c1ccccc1)[C@@H](C)c1ccccc1)[C@@H](C)c1ccccc1)[C@@H](C)c1ccccc1)[C@@H](C)c1ccccc1 (H-[Nlys][Nspe][Nspe][Nlys][Nspe][Nspe][Nlys][Nspe][Nspe][Nlys][Nspe][Nspe]-NH2) has what hemolysis at 1 h, 200 µM?
RESULT: 100

# credit: ChEMBL document CHEMBL4177724
